Data origin, for the record: PubChem BioAssay AID1963837

- Test system: 843126-344-R-J1-PDC complex spheroid viability
- METHOD DESCRIPTION: Anticancer human tumor 843126-344-R-J1-PDC patient-derived melanoma cell line growth inhibition [POLQ]
- STATED CONDITIONS: second compound 0.0316 µM; first compound 0.0316 µM; stronger effect = lower value
Collected viability, T/C values appear next to each entry.
Express your answer in %, writing the number without its unit.

# count of solved cases: 3
| COMPOUND | SYSTEM | UNIT OF MEASUREMENT | viability, T/C |
| --- | --- | --- | --- |
| Cn1ncnc1[C@H]1c2n[nH]c(=O)c3cc(F)cc(c23)N[C@@H]1c1ccc(F)cc1 + Nc1ccc(C#CCN(C(=O)Cc2ncc(C(F)(F)F)cc2C(F)(F)F)c2ccc(F)cc2)nn1 | 843126-344-R-J1-PDC complex spheroid viability | % | 96.1 |
| O=C(c1cc(Cc2n[nH]c(=O)c3ccccc23)ccc1F)N1CCN(C(=O)C2CC2)CC1 + COC1C(OC(N)=O)C(O)C(Oc2ccc3c(O)c(NC(=O)c4ccc(O)c(CC=C(C)C)c4)c(=O)oc3c2C)OC1(C)C | 843126-344-R-J1-PDC complex spheroid viability | % | 81.4 |
| COc1cc(C2c3cc4c(cc3C(OC3OC5COC(C)OC5C(O)C3O)C3COC(=O)C23)OCO4)cc(OC)c1O (stereo not given) + Nc1ccc(C#CCN(C(=O)Cc2ncc(C(F)(F)F)cc2C(F)(F)F)c2ccc(F)cc2)nn1 | 843126-344-R-J1-PDC complex spheroid viability | % | 82.4 |

Reported viability, T/C (843126-344-R-J1-PDC complex spheroid viability) for entry O=C(c1cc(Cc2n[nH]c(=O)c3ccccc23)ccc1F)N1CCN(C(=O)C2CC2)CC1 + Cc1cccc(N(C)C(=O)C2C(O)CCN2c2nc(C)cc(C(F)(F)F)c2C#N)c1 is 116

Reported viability, T/C (843126-344-R-J1-PDC complex spheroid viability) for entry O=C(c1cc(Cc2n[nH]c(=O)c3ccccc23)ccc1F)N1CCN(C(=O)C2CC2)CC1 + Nc1ccc(C#CCN(C(=O)Cc2ncc(C(F)(F)F)cc2C(F)(F)F)c2ccc(F)cc2)nn1 is 98.2

----------
- System: 843126-344-R-J1-PDC complex spheroid viability
- METHOD DESCRIPTION: Anticancer human tumor 843126-344-R-J1-PDC cell line growth inhibition [POLQ]
- STATED CONDITIONS: curve of first compound; second compound 10 µM
MEASUREMENT NAME: pIC50
Scale: pIC50 equals -log10([C]), with [C] in mol/L.

# count of solved cases: 2
| COMPOUND | pIC50 |
| --- | --- |
| COc1ccc([C@@H](O)c2cc(-c3ncnc4cc(N5CCOCC5)ccc34)c(F)cc2Cl)nn1 + COC1C(OC(N)=O)C(O)C(Oc2ccc3c(O)c(NC(=O)c4ccc(O)c(CC=C(C)C)c4)c(=O)oc3c2C)OC1(C)C | 5.03 |
| CC1COCCN1c1cc(C2(O)CC3CCC(C2)O3)c2cnn(-c3ccn[nH]3)c2n1 (stereo not given) + Nc1ccc(C#CCN(C(=O)Cc2ncc(C(F)(F)F)cc2C(F)(F)F)c2ccc(F)cc2)nn1 | 6.68 |

Recorded pIC50 (compound CC1COCCN1c1cc(-c2ccnn2C)c2ccnc(-c3ccn[nH]3)c2n1 (stereo not given) + Cc1cccc(N(C)C(=O)C2C(O)CCN2c2nc(C)cc(C(F)(F)F)c2C#N)c1 ): 5.73

----------
- Tested on: 843126-344-R-J1-PDC complex spheroid viability
- METHOD DESCRIPTION: Anticancer human tumor 843126-344-R-J1-PDC cell line growth inhibition [POLQ];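 as to viability, T/C: spheroids exposed to drugs for seven days before readout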
- STATED CONDITIONS: second compound 0.316 µM; first compound 0.001 µM; stronger effect = lower value
MEASUREMENT NAME: viability, T/C (%)
Express your answer in %, writing the number without its unit.

| COMPOUND | MEASUREMENT NAME | ENDPOINT VALUE |
| --- | --- | --- |
| Cn1ncnc1[C@H]1c2n[nH]c(=O)c3cc(F)cc(c23)N[C@@H]1c1ccc(F)cc1 + Nc1ccc(C#CCN(C(=O)Cc2ncc(C(F)(F)F)cc2C(F)(F)F)c2ccc(F)cc2)nn1 | viability, T/C | 93.3 |

Recorded viability, T/C (compound Cn1ncnc1[C@H]1c2n[nH]c(=O)c3cc(F)cc(c23)N[C@@H]1c1ccc(F)cc1 + COC1C(OC(N)=O)C(O)C(Oc2ccc3c(O)c(NC(=O)c4ccc(O)c(CC=C(C)C)c4)c(=O)oc3c2C)OC1(C)C ): 109

Recorded viability, T/C (compound Cn1ncnc1[C@H]1c2n[nH]c(=O)c3cc(F)cc(c23)N[C@@H]1c1ccc(F)cc1 + Cc1cccc(N(C)C(=O)C2C(O)CCN2c2nc(C)cc(C(F)(F)F)c2C#N)c1 ): 82.5

Recorded viability, T/C (compound CC[C@@]1(O)C(=O)OCc2c1cc1n(c2=O)Cc2cc3c(CN(C)C)c(O)ccc3nc2-1 + COC1C(OC(N)=O)C(O)C(Oc2ccc3c(O)c(NC(=O)c4ccc(O)c(CC=C(C)C)c4)c(=O)oc3c2C)OC1(C)C ): 99.2

Recorded viability, T/C (compound CC[C@@]1(O)C(=O)OCc2c1cc1n(c2=O)Cc2cc3c(CN(C)C)c(O)ccc3nc2-1 + Cc1cccc(N(C)C(=O)C2C(O)CCN2c2nc(C)cc(C(F)(F)F)c2C#N)c1 ): 102

Recorded viability, T/C (compound CC[C@@]1(O)C(=O)OCc2c1cc1n(c2=O)Cc2cc3c(CN(C)C)c(O)ccc3nc2-1 + Nc1ccc(C#CCN(C(=O)Cc2ncc(C(F)(F)F)cc2C(F)(F)F)c2ccc(F)cc2)nn1 ): 81.4

----------
- System: 843126-344-R-J1-PDC complex spheroid viability
- METHOD DESCRIPTION: Anticancer human tumor 843126-344-R-J1-PDC cell line growth inhibition [POLQ];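 as to viability, T/C: spheroids exposed to drugs for seven days before readout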
- STATED CONDITIONS: second compound 0.0316 µM; first compound 0.0316 µM; stronger effect = lower value
Note to self: viability, T/C under 90% means satisfied, ties and anything higher get not satisfied.

Answered examples (3):
| MOLECULE | QUALITATIVE LABEL |
| --- | --- |
| CCc1c2c(nc3ccc(O)cc13)-c1cc3c(c(=O)n1C2)COC(=O)[C@]3(O)CC + Cc1cccc(N(C)C(=O)C2C(O)CCN2c2nc(C)cc(C(F)(F)F)c2C#N)c1 | satisfied |
| C=CCn1c(=O)c2cnc(Nc3ccc(N4CCN(C)CC4)cc3)nc2n1-c1cccc(C(C)(C)O)n1 + Nc1ccc(C#CCN(C(=O)Cc2ncc(C(F)(F)F)cc2C(F)(F)F)c2ccc(F)cc2)nn1 | not satisfied |
| Cn1ncnc1[C@H]1c2n[nH]c(=O)c3cc(F)cc(c23)N[C@@H]1c1ccc(F)cc1 + COC1C(OC(N)=O)C(O)C(Oc2ccc3c(O)c(NC(=O)c4ccc(O)c(CC=C(C)C)c4)c(=O)oc3c2C)OC1(C)C | not satisfied |

Hello, I'm reviewing records and need to know if viability, T/C of CCc1cc2c(N3CCc4c(cc(Cn5ccnc5)cc4-c4cn(C)nc4C(F)(F)F)C3=O)cc(C)nc2c(OC)n1 + COC1C(OC(N)=O)C(O)C(Oc2ccc3c(O)c(NC(=O)c4ccc(O)c(CC=C(C)C)c4)c(=O)oc3c2C)OC1(C)C is below 90%. Could you check?
not satisfied

----------
- Test system: 843126-344-R-J1-PDC complex spheroid viability
- METHOD DESCRIPTION: Anticancer human tumor 843126-344-R-J1-PDC cell line growth inhibition [POLQ];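 as to viability, T/C: spheroids exposed to drugs for seven days before readout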
- STATED CONDITIONS: second compound 0.0316 µM; first compound 0.0316 µM; stronger effect = lower value
Collected viability, T/C values appear next to each entry.
Express your answer in %, writing the number without its unit.

# count of solved cases: 4
| COMPOUND | viability, T/C (%) |
| --- | --- |
| CCc1cc2c(N3CCc4c(cc(Cn5ccnc5)cc4-c4cn(C)nc4C(F)(F)F)C3=O)cc(C)nc2c(OC)n1 + Cc1cccc(N(C)C(=O)C2C(O)CCN2c2nc(C)cc(C(F)(F)F)c2C#N)c1 | 90.8 |
| CC1COCCN1c1cc(C2(O)CC3CCC(C2)O3)c2cnn(-c3ccn[nH]3)c2n1 (stereo not given) + Cc1cccc(N(C)C(=O)C2C(O)CCN2c2nc(C)cc(C(F)(F)F)c2C#N)c1 | 95.7 |
| COc1cc2cc(C(=O)CCC(=O)O)sc2cc1OC + COC1C(OC(N)=O)C(O)C(Oc2ccc3c(O)c(NC(=O)c4ccc(O)c(CC=C(C)C)c4)c(=O)oc3c2C)OC1(C)C | 93.2 |
| CNCc1ccc(-c2[nH]c3cc(F)cc4c3c2CCNC4=O)cc1 + COC1C(OC(N)=O)C(O)C(Oc2ccc3c(O)c(NC(=O)c4ccc(O)c(CC=C(C)C)c4)c(=O)oc3c2C)OC1(C)C | 84.8 |

We now examine a further compound.
Recorded viability, T/C (compound CCc1c2c(nc3ccc(O)cc13)-c1cc3c(c(=O)n1C2)COC(=O)[C@]3(O)CC + Nc1ccc(C#CCN(C(=O)Cc2ncc(C(F)(F)F)cc2C(F)(F)F)c2ccc(F)cc2)nn1 ): 63.9
